experimentalSystem: Short transient receptor potential channel 4 (Mus musculus) (UniProt Q9QUQ5)
Sequence (Q9QUQ5 whole entry, looked up): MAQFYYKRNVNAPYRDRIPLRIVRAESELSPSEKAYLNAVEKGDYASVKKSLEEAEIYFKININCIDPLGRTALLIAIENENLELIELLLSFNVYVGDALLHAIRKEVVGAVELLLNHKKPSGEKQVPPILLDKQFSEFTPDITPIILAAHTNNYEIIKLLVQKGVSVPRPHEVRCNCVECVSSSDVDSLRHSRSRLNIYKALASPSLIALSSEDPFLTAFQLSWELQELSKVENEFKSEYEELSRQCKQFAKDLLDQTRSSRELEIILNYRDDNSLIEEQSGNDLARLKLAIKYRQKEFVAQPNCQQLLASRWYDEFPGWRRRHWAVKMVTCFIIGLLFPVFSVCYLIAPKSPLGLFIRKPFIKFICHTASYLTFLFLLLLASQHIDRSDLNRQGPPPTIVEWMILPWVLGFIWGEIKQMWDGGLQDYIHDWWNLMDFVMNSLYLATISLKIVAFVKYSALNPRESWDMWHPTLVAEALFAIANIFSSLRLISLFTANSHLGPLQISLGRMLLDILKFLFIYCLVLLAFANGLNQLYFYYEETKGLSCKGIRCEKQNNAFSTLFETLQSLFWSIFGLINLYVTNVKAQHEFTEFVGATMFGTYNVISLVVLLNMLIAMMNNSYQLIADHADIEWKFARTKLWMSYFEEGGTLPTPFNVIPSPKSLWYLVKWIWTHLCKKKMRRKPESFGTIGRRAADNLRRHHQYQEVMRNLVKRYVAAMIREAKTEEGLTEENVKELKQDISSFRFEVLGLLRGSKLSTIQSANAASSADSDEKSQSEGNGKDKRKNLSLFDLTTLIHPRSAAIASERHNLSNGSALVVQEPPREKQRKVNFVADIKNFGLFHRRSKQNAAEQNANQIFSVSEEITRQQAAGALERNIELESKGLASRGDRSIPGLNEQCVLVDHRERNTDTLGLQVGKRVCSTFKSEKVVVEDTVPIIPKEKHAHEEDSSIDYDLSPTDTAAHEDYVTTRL
testDescription: blockers of DAMGO-evoked TRPC4 calcium flux – cell-based, second round, Fluo4, HEK293 TRPC4beta/mu-opioid, 1 µM, confirmation (AID 2637)
condition: at 1 µM
Calls of active or inactive are those of the source.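 How the source made its calls: active means calcium signal ratio cut to more than 3 SD under the fully stimulated control mean yet still positive, in both repeats and the primary screen; inactive means the rest.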
Answer with one of the outcomes given here: active, inactive

Past entries and their recorded results:
| compound | category |
| --- | --- |
| CC1CCCN(c2c3c(nc4ccccc24)CCCC3)C1 (stereo not drawn) | inactive |
| Cc1ccc(NC(=O)CN2CCc3ccccc3C2)cc1F | inactive |
| COc1ccc(Cc2noc(CN(C)CC3CCN(Cc4ccccc4)CC3)n2)cc1OC | inactive |
| N#Cc1ccc(OCC(O)CN2CCN(c3ncc(C(F)(F)F)cc3Cl)CC2)cc1 (stereo not drawn) | inactive |

Prompt: Recorded test outcome, item CCCCN1C(=O)C(=O)N(CC(=O)Nc2cc(OCC)c(N3CCOCC3)cc2OCC)C1=O
Completion: inactive

Prompt: Recorded test outcome, item CC(C)Oc1ccc(CCC(=O)NNC(=S)NCc2ccccc2)cc1
Completion: inactive

Prompt: Recorded test outcome, item O=C(Nc1cnn(C23CC4CC(CC(C4)C2)C3)c1)c1cnn2cccnc12
Completion: inactive

Prompt: Recorded test outcome, item CC(=O)Nc1nc2ccc(S(=O)(=O)N3CCCCC3)cc2s1
Completion: inactive

Prompt: Recorded test outcome, item Cn1c(-c2ccccc2)cnc1NCc1ccccc1
Completion: active

Prompt: Recorded test outcome, item O=S(=O)(NCCc1csc(-c2ccccc2)n1)c1cccnc1
Completion: inactive

Prompt: Recorded test outcome, item N=c1n(CCO)c2ccccc2n1Cc1ccc(Cl)cc1
Completion: active

Prompt: Recorded test outcome, item CCN1C2=NCCCN2c2cc(C)c(C)cc21
Completion: inactive

Prompt: Recorded test outcome, item COc1ccc2c(Cl)c(-c3nnc4n3CCCCC4)sc2c1
Completion: inactive

Prompt: Recorded test outcome, item CCOC(=O)C1=NN(c2ccccc2C)C2=NC(C)=C(C(=O)OC)C(c3cccc(OC)c3)N12 (stereo not drawn)
Completion: inactive

Prompt: Recorded test outcome, item Cc1nc(Cl)c(Cl)n1CCOc1ccccc1
Completion: active

Prompt: Recorded test outcome, item Cc1ccc(-c2nnc(N3CCC(C)CC3)c3ccccc23)cc1C
Completion: inactive

Prompt: Recorded test outcome, item CCC(=O)N1CCc2cc(S(=O)(=O)NCCN3CCCCC3CC)ccc21 (stereo not drawn)
Completion: active

Prompt: Recorded test outcome, item Cc1ccc(S(=O)(=O)N2CCC(C(=O)OCC(=O)N(C)CC(=O)Nc3ccc(F)cc3)CC2)cc1C
Completion: inactive

----------
testDescription: nonspecific calcium rise without TRPC4 – cell-based, HEK293 mu-opioid receptor line, counter-screen for TRPC4 activator project, confirmation (AID 449723);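 further: counter screen cells carry the mu-opioid receptor alone and lack TRPC4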
condition: HEK293 mu-opioid cells, Fluo-4 calcium fluorescence, at 10 µM
Calls of active or inactive are those of the source.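 How the source made its calls: active means hit in primary screen, with calcium signal over 5 SD above buffer well mean in both duplicates; inactive means the rest.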
Answer with one of the outcomes given here: active, inactive

| compound | category |
| --- | --- |
| OCC1(CCc2ccccc2)CCN(Cc2ccc3nsnc3c2)CC1 | inactive |
| Cc1cc(N2CCOCC2)nc(NCc2ccccc2)n1 | inactive |
| N#Cc1c(N)sc2c1CCCCCC2 | inactive |

Prompt: Recorded test outcome, item CC1=C(C(=O)NCc2ccccc2)C(c2cc(Br)cc(Br)c2OC(C)C)NC(=O)N1 (stereo not drawn)
Completion: inactive

Prompt: Recorded test outcome, item COc1ccc(C(CNC(=O)CCOc2ccccc2)N(C)C)cc1 (stereo not drawn)
Completion: inactive

Prompt: Recorded test outcome, item Cc1ccc(NS(=O)(=O)c2ccc(NS(=O)(=O)c3cccs3)cc2)cc1
Completion: inactive

Prompt: Recorded test outcome, item COc1cc(CNCCc2ccc(F)cc2)ccc1OCc1ccc(Cl)nc1
Completion: inactive

Prompt: Recorded test outcome, item COc1ccc(-n2ncc3c(N4CCc5ccccc54)ncnc32)cc1
Completion: inactive

Prompt: Recorded test outcome, item CN(CCNC(=O)c1ccc(/C=N/O)nc1)Cc1ccccc1
Completion: inactive

Prompt: Recorded test outcome, item O=c1c2cc(Br)ccc2nc(-c2cccc(Cl)c2)n1O
Completion: active

----------
experimentalSystem: Inward rectifier potassium channel 2 (Mus musculus)
testDescription: inhibition of Kir2.1 inward rectifier potassium flux – cell-based, FluxOR thallium flux, duplicate, confirmation (AID 2032)
condition: Kir2.1-expressing cells, FluxOR thallium flux fluorescence, at 10 µM; active compounds read low
The other results are listed elsewhere or left out. Calls of active or inactive are those of the source.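 The calls were made as follows: active = Primary-screen hit whose thallium flux fell at least 3 control SD below untreated wells in both duplicates, with normal baseline fluorescence; inactive = the rest.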
measureName: Tl flux remaining, % of negative control (active compounds read low)

Examples with answers:
| molecule | reportedValue |
| --- | --- |
| COc1cccc(NC(=O)C2C(c3ccccc3)C2(Cl)Cl)c1 (configuration not stated) | inactive |
| Cc1cccc(NC(=S)NC(=O)c2ccc(Br)o2)c1 | inactive |
| CC1CN(C(=O)CCC(=O)NCCCN2CCC(Cc3ccccc3)CC2)c2cc(Cl)ccc2O1 (configuration not stated) | 35.5% (active) |
| O=C(Nc1cccc(-c2cscn2)c1)C1CCN(Cc2ccsc2)CC1 | 44% (active) |
| Cc1[nH]n(-c2cccc(Cl)c2)c(=O)c1/C=N/n1c(C)nc2ccccc2c1=O | inactive |
| COc1ccc(CCC(C)N2CCc3ccccc3C2)cc1 (configuration not stated) | 25.5% (active) |

Attention now shifts to the item below.
Prompt: So what's the measured Tl flux remaining, % of negative control (active compounds read low) for this one? CCCCOC(=O)Cn1c(=O)n(CC(=O)OCCCC)c2cc(C)ccc21
Completion: inactive

----------
testDescription: nonspecific calcium rise without TRPC4 – cell-based, HEK293 mu-opioid receptor line, counter-screen for TRPC4 activator project, confirmation (AID 449723);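 further: counter screen cells carry the mu-opioid receptor alone and lack TRPC4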
condition: HEK293 mu-opioid cells, Fluo-4 calcium fluorescence, at 10 µM; active compounds read high
Active and inactive are the calls of the source.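 Rule for the calls: active = hit in primary screen, with calcium signal over 5 SD above buffer well mean in both duplicates; inactive = the rest.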
measureName: activation

Examples with answers:
| compound | activation |
| --- | --- |
| COc1ccc(CNCc2cn(-c3cccc(F)c3)nc2-c2ccc(C)o2)cc1 | 12.4% (active) |
| Cc1cc2nc(CSc3ccc(Cl)cc3)cc(=O)n2[nH]1 | inactive |
| OCCNc1nc2ccccc2n1CCN1CCCCC1 | inactive |
| CCOc1ccccc1CN1CCC(n2nccc2NC(=O)CCc2ccccc2)CC1 | inactive |
| C=CCNc1nc(N2CCCC2)nc2ccccc12 | inactive |
| O=C(C[N+]1(CC#Cc2ccccc2)CCCCC1)c1ccc(Cl)cc1 | inactive |
| Cc1ccc(N2CCN(C(=O)c3ccccc3F)CC2)c(C)c1 | inactive |
| CC(C)(C)c1cc(O)c(C(C)(C)C)cc1O | 47.1% (active) |
| CN(CC(=O)NC1CCCc2ccccc21)C1CCCCC1 (stereo not drawn) | inactive |
| O=[N+]([O-])c1ccc(N2CCN(CCOc3nonc3-c3ccccc3)CC2)c(Cl)c1 | inactive |

Prompt: So what's the measured activation for this one? Cc1cc(C)cc(N(CC(=O)Nc2ccc(C)cc2Cl)S(=O)(=O)c2c(C)[nH]c(=O)[nH]c2=O)c1
Completion: inactive

Prompt: So what's the measured activation for this one? CCN1CCN(c2ccc(S(=O)(=O)N3CCCCC3)cc2NC(=O)COc2cc(C)ccc2Cl)CC1
Completion: inactive

Prompt: So what's the measured activation for this one? Fc1cccc(Nc2c3c(nc4ccccc24)CCC3)c1
Completion: inactive

----------
experimentalSystem: Short transient receptor potential channel 4 (Mus musculus) (UniProt Q9QUQ5)
testDescription: blockers of DAMGO-evoked TRPC4 calcium flux – cell-based, second round, Fluo4, HEK293 TRPC4beta/mu-opioid, 1 µM, confirmation (AID 2637)
condition: at 1 µM
Calls of active or inactive are those of the source.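 How the source made its calls: active means calcium signal ratio cut to more than 3 SD under the fully stimulated control mean yet still positive, in both repeats and the primary screen; inactive means the rest.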
Answer with one of the outcomes given here: class 1 = active, class 0 = inactive

Past entries and their recorded results:
| compound | category |
| --- | --- |
| Cc1ccc2nc(C(=O)N3CCc4c([nH]c5ccccc45)C3c3ccccn3)cn2c1 (stereo not given) | class 0 |
| C=CCOc1ccc(Br)cc1CNC(C)(C)CO | class 1 |
| Cn1c(=O)c2c(nc(SCc3cccnc3)n2Cc2ccc(F)cc2)n(C)c1=O | class 0 |
| Cc1cc2oc(C(=O)N(Cc3ccco3)C3CCS(=O)(=O)C3)cc(=O)c2cc1Cl (stereo not given) | class 0 |
| C=CCn1c(SCCN2CCCCC2)nc2c1c(=O)[nH]c(=O)n2C | class 0 |

Prompt: Recorded test outcome, item Cc1c(CN2CCC(n3nccc3NC(=O)CCc3ccccc3)CC2)cnn1C
Completion: class 1

Prompt: Recorded test outcome, item Cc1oc(-c2ccc(Cl)cc2)nc1CN1CCC(C(=O)N2CCc3ccccc3C2)CC1
Completion: class 0

----------
experimentalSystem: Short transient receptor potential channel 6 (Mus musculus) (UniProt Q61143)
Sequence (Q61143 whole entry, looked up): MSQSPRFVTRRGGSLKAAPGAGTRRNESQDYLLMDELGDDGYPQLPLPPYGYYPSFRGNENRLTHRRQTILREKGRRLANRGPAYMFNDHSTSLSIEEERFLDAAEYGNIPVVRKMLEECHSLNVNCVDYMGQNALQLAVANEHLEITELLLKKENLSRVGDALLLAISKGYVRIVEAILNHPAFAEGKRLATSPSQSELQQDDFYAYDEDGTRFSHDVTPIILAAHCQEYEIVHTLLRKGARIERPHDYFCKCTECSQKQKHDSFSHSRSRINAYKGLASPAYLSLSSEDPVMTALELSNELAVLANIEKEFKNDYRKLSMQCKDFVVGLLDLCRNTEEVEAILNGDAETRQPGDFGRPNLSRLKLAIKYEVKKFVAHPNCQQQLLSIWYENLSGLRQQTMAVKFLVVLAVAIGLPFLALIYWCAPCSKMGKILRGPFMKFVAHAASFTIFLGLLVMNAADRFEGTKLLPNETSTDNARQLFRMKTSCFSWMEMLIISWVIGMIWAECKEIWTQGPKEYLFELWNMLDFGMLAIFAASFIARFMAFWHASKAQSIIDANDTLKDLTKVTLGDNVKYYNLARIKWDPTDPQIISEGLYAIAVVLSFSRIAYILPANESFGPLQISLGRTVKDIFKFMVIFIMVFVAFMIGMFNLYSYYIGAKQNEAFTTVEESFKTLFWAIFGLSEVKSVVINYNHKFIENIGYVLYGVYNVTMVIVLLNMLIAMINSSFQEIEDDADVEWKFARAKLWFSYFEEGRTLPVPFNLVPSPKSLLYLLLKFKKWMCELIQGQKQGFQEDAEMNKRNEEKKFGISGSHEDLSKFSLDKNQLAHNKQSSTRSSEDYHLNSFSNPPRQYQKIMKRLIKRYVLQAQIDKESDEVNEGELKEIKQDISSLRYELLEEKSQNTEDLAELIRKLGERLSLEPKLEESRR
testDescription: TRPC6 opening by TRPC4 activator hits – cell-based, HEK293, membrane potential dye, duplicate, selectivity assay for TRPC4 activator project, confirmation (AID 434950);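 further: 0% = buffer only wells and 100% = acetylcholine maximal-effect wells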
condition: HEK293 TRPC6, membrane potential fluorescence, at 10 µM; active compounds read high
measureName: activation (%)
Provide the reading as a plain figure in %.

Examples with answers:
| compound | reportedValue |
| --- | --- |
| O=C(C1=C[C@H](c2ccc(C(F)(F)F)cc2)C[C@H](OCCCCO)O1)N1CCN(Cc2ccccc2)CC1 | 35 |
| O=C(C1=C[C@H](c2ccc(C(F)(F)F)cc2)C[C@H](OCCCCO)O1)N1CCOCC1 | 27.5 |
| Cc1ccc(S(=O)(=O)/N=C2/NC(=O)/C(=C\c3cc(Br)cc(Br)c3O)S2)cc1 | 447 |

Prompt: Please tell me: activation of Cc1cc(N2CCCCC2)nc(NCc2ccccc2)n1 , system Short transient receptor potential channel 6 (Mus musculus) (UniProt Q61143)?
Completion: 68.5

Prompt: Please tell me: activation of COc1ccc(C(CNC(=O)Cc2cccs2)N(C)C)cc1 (stereo not given) , system Short transient receptor potential channel 6 (Mus musculus) (UniProt Q61143)?
Completion: 36.5

Prompt: Please tell me: activation of COc1ccc(/C=N/NC(=O)C2COc3ccccc3O2)cc1OC (stereo not given) , system Short transient receptor potential channel 6 (Mus musculus) (UniProt Q61143)?
Completion: 45

Prompt: Please tell me: activation of OCCC1CN(Cc2ccccc2-c2ccco2)CCN1Cc1ccccc1 (stereo not given) , system Short transient receptor potential channel 6 (Mus musculus) (UniProt Q61143)?
Completion: 63.5

Prompt: Please tell me: activation of CCn1c(N2CCN(CC(=O)Nc3cccc(C)c3C)CC2)nc2ccccc21 , system Short transient receptor potential channel 6 (Mus musculus) (UniProt Q61143)?
Completion: 56.5

Prompt: Please tell me: activation of COc1ccc2c(Cl)c(-c3nnc4n3CCCCC4)sc2c1 , system Short transient receptor potential channel 6 (Mus musculus) (UniProt Q61143)?
Completion: 52

Prompt: Please tell me: activation of O=C(NCCc1ccccn1)c1ccc(COc2ccccc2)o1 , system Short transient receptor potential channel 6 (Mus musculus) (UniProt Q61143)?
Completion: 35

Prompt: Please tell me: activation of c1ccc(Cn2nnnc2C(c2cccnc2)N2CCN(C3CCCCC3)CC2)cc1 (stereo not given) , system Short transient receptor potential channel 6 (Mus musculus) (UniProt Q61143)?
Completion: 47.5
